Recorded values, source patent US9718794B2.

# protocol text: Rat pharmacokinetics (IV and PO, plasma)
# Format: in vivo
# condition notes: male, CD IGS, PO 100 mg/kg, mean
reported property: bioavailability

Report bioavailability for `O=C([O-])c1ccc(Nc2cc(N3CCN(C4CCCCC4)CC3)c3noc4c3c2C(=O)c2ccccc2-4)cc1.[Na+]` ~100%

----------
# target: TrkA (human full length) (Homo sapiens)
# Sequence (P04629 33-796): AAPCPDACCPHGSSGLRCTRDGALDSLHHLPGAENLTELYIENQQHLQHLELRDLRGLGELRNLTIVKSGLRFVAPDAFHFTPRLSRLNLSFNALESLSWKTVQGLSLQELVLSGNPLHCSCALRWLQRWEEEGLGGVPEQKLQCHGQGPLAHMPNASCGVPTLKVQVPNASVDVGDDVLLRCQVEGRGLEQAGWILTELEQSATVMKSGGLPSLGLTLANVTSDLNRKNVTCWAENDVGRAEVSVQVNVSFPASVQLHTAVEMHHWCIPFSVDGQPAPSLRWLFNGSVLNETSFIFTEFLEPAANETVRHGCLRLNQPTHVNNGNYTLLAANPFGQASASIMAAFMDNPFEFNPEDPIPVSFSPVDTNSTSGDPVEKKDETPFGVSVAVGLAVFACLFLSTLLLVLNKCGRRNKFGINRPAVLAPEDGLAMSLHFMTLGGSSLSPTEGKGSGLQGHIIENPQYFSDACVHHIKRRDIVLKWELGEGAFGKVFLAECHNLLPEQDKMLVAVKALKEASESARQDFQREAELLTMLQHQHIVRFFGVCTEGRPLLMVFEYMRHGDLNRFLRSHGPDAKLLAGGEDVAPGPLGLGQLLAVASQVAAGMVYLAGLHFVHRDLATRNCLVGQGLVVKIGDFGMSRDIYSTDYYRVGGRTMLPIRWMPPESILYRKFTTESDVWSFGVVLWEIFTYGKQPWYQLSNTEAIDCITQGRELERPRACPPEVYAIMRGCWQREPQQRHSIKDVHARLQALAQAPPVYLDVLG
# protocol text: PathHunter whole cell functional assay, NGF stimulated TrkA activation (U2OS)
# condition notes: U2OS PathHunter cells, mean of triplicate; read-out: cellular IC50, NGF stimulated TrkA activation
reported property: IC50

Provide IC50, system TrkA (human full length) (Homo sapiens), entry `O=C(O)c1ccc(Nc2cc(N3CCN(C4CCCCC4)CC3)c3noc4c3c2C(=O)c2ccccc2-4)cc1` ~50 nM
